- study.target: Neu5Ac(a2-6)GalNAc(b1-4)GlcNAc
- test.details: glycan array binding signal (z-score within array); higher = stronger binding
- condition.description: glycan notation: IUPAC condensed, linker removed
The sample as a whole holds a higher share of the strongest signals than the screen did.
Just so you know, the groups by glycan array binding signal (z-score) go like this: bottom: < -0.003; middle: ≥ -0.003 and < 0.2; top: ≥ 0.2

binder | class.label
OS9-MRH (Homo sapiens), Q13438 (protein) IPELLSPMRDAPCLLKTKDWWTYEFCYGRHIQQYHMEDSEIKGEVLYLGYYQSAFDWDDETAKASKQHRLKRYHSQTYGNGSKCDLNGRPREAEVRFLCDEGAGISGDYIDRVDEPLSCSYVLTIRTPRLCPHPLLRPPPSAAPQAI | top
ArathEULS3 TAP (Arabidopsis thaliana) (protein) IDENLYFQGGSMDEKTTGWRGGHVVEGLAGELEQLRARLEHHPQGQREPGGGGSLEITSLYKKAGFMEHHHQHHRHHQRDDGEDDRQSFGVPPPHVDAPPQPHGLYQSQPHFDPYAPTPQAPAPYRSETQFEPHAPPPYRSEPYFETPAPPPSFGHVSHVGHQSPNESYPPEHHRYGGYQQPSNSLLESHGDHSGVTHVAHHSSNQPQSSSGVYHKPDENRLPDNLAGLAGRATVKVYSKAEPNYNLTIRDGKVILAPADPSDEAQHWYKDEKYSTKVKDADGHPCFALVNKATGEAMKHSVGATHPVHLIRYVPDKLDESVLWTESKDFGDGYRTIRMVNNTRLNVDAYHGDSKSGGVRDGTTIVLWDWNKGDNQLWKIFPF | middle
M6PR (Bos taurus), P11456 (protein) MMSPLHSSWRTGLLLLLLFSVAVRESWQTEEKTCDLVGEKGKESEKELALLKRLTPLFNKSFESTVGQSPDMYSYVFRVCREAGNHSSGAGLVQINKSNGKETVVGRFNETQIFNGSNWIMLIYKGGDEYDNHCGREQRRAVVMISCNRHTLADNFN | top
PhypaEULS3 (Physcomitrella patens) (protein) MLPVRLHCKADPNFNLAAVPGQGPVMVPFSPNDDFQVWYKDVTMSTRVKDETGSSAFSLINKATGQALRHAPEDLAQCLLADYDSNALDQTVLWTMSEDMGQGYCCIRLASQITRNLDVFRGDKKSGGVKEGSPVITFAWKKQDNQIWKMITAILEQKLISEEDLNSAVDHHHHHH | top
ArathEULS3 (Arabidopsis thaliana), Q945P1 (protein) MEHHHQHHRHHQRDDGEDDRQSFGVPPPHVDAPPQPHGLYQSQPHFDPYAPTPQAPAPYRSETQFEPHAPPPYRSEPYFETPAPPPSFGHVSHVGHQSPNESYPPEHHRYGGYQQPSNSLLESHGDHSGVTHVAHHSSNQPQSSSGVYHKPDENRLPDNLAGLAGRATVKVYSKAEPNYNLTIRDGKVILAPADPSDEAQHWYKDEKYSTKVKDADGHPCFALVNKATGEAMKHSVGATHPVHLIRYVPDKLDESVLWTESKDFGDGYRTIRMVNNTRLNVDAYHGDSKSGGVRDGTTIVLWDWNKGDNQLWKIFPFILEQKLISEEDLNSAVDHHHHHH | bottom
HMGB1 (Rattus norvegicus), P63159 (protein) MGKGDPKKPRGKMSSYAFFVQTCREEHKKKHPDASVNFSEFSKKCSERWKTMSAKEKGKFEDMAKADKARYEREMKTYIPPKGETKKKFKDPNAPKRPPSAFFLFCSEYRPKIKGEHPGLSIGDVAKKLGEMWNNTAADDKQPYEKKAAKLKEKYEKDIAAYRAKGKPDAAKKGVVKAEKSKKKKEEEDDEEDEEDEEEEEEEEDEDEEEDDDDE | top
LKPARMA (Neurospora crassa) (protein) MSFHVTAEDARRIEVRDNRTILFARLRREDGEWNDASYELDQIIGNNDGHFQWGGGQNFTETAEDIRFHPKEGAAEQPILRARLRDCNGEFHDRDVNLTEIVENVNGEFQAKF | bottom
HMGB1 (Homo sapiens), P09429 (protein) MGKGDPKKPRGKMSSYAFFVQTCREEHKKKHPDASVNFSEFSKKCSERWKTMSAKEKGKFEDMAKADKARYEREMKTYIPPKGETKKKFKDPNAPKRPPSAFFLFCSEYRPKIKGEHPGLSIGDVAKKLGEMWNNTAADDKQPYEKKAAKLKEKYEKDIAAYRAKGKPDAAKKGVVKAEKSKKKKEEEEDEEDEEDEEEEEDEEDEDEEEDDDDE | middle
rMpL (Macrolepiota procera) (protein) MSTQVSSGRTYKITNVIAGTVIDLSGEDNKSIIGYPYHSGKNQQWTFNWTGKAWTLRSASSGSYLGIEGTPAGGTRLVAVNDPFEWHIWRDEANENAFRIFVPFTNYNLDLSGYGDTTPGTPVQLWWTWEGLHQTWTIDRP | bottom

The values you see were collected from the supplement of paper PMC8728848.
